pKi: −log10 of the molar value.
Study the reported pKi values for UniProtKB P00489 given below; they originate from different publications.
Sequence (P00489 whole entry): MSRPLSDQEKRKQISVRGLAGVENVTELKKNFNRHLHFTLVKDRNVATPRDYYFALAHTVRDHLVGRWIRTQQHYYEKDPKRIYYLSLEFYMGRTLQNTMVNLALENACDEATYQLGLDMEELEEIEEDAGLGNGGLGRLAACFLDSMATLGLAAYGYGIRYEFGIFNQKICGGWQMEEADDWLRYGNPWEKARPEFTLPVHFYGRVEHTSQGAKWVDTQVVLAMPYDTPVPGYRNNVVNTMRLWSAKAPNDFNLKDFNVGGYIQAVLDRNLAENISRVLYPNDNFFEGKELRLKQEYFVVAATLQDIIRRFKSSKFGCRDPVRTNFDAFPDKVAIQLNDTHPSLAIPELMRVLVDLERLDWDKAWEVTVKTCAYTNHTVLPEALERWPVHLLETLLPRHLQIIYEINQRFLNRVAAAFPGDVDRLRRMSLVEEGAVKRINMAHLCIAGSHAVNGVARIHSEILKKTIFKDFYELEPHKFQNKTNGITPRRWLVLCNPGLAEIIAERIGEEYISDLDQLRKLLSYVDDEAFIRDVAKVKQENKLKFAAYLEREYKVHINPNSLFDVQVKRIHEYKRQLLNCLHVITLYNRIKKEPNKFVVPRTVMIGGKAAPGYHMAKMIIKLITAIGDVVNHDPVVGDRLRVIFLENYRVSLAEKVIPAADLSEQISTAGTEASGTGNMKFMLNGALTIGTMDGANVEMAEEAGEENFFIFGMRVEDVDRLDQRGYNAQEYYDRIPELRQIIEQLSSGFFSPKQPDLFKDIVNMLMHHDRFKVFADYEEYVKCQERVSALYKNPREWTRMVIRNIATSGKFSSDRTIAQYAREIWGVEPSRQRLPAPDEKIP
reported endpoint: pKi

Record lookup: for UniProtKB P00489, what pKi belongs to `CCCC#Cc1cn([C@@H]2O[C@H](CO)[C@@H](O)[C@H](O)[C@H]2O)c(=O)[nH]c1=O` ? 3.52

I: O=C(N[C@@H]1O[C@H](CO)[C@@H](O)[C@H](O)[C@H]1O)c1cccc2ccccc12
II: C#Cc1cn([C@@H]2O[C@H](CO)[C@@H](O)[C@H](O)[C@H]2O)c(=O)[nH]c1=O
III: Nc1cc(N)cc(-c2n[nH]c([C@@H]3O[C@H](CO)[C@@H](O)[C@H](O)[C@H]3O)n2)c1
Highest pKi first, then in falling order down to the smallest. The reply should contain the labels ordered as requested. II, III, I
